Just for reference, PubChem BioAssay (NCI) is where these values come from.

Test system: HOP-62 NSCLC
protocol.details: NCI-60 one-dose screen, 48 h (100 = growth as untreated, 0 = no growth, -100 = all killed)
condition.label: 10 µM unless noted
This is part of a sample that, as a whole, favours compounds with a hit. Of some 83,000 tested, about 20% had one in any assay. Active and inactive are the calls of the source. How the source made its calls: active means growth percent below 10; inactive means the rest.
Could you please report measured growth for the items listed next?

So what's the measured growth for this one? O=C1c2ccccc2NC(n2sc3ccccc3c2=O)N1c1ccccc1 (stereo unspecified) 92.3% (inactive)

So what's the measured growth for this one? "Cc1ccc(-c2nc(N3CCN(C(=O)c4ccc(OC(F)(F)F)cc4)CC3)c3ccccc3n2)cc1" 99.3% (inactive)

So what's the measured growth for this one? "COc1cccc(-c2nc(-c3ccc(NC(=O)c4ccccc4)cc3)[nH]c2-c2ccnc(Br)c2)c1" 4.28% (active)

So what's the measured growth for this one? "O=C(N/N=C/[C@H](O)[C@H](O)[C@H](O)CO)c1ccc(NC(=O)c2cccnc2)cc1" 97.5% (inactive)

So what's the measured growth for this one? "CCc1ccc2nc(NC(=O)Cc3csc(NC(=O)c4ccco4)n3)sc2c1" 86.3% (inactive)

So what's the measured growth for this one? COC1=C(C)C(=O)c2c(c(CCCl)c3n2CCC3OC(C)=O)C1=O (stereo unspecified) -22.4% (active)

So what's the measured growth for this one? "O=c1n(Cc2ccc3ccccc3c2)ccn1Cc1ccc2ccccc2c1" 66% (inactive)

So what's the measured growth for this one? "COc1cc2cc(Oc3ccc(NC(=O)Nc4ccc(Cl)c(C(F)(F)F)c4)cc3)c(C)nc2cc1OCCN1CCOCC1" 27.6% (inactive)

So what's the measured growth for this one? "N#Cc1c(-c2ccccc2)nc(SCC(=O)Nc2nc(-c3ccc(Cl)cc3)cs2)[nH]c1=O" 90.2% (inactive)

So what's the measured growth for this one? "CCN(CC)Cc1cc(Nc2c3ccc(Cl)cc3nc3ccc(OC)cc23)ccc1O" 80.5% (inactive)

So what's the measured growth for this one? "CNC(=O)c1[nH]cc(-c2ccccc2)c1-c1cc(OC)c2c(c1OC)OCO2" 94.5% (inactive)

So what's the measured growth for this one? "CC(=O)O.CN1[CH-]N(Cc2ccc(C#N)cc2)c2ccccc21.[Ag+]" 108% (inactive)

So what's the measured growth for this one? O=C(CCOCCNC(=O)COc1ccc2c(c1)OCC(c1ccc(F)cc1)C2=O)NCCCC(O)(P(=O)(O)O)P(=O)(O)O (stereo unspecified) 105% (inactive)

So what's the measured growth for this one? "COc1ccc2c(c1)nc(NNC(=O)c1cnccn1)c1cccn12" 28.6% (inactive)

So what's the measured growth for this one? CCc1cccc2c3c(sc12)C(c1ccc(F)cc1)C(C#N)=C(N)O3 (stereo unspecified) 48.7% (inactive)

So what's the measured growth for this one? "COc1ccc(-c2[nH]ncc2-c2cc3c(c(OC)c2)OCC(=O)N3)cc1" 27.2% (inactive)

So what's the measured growth for this one? "Oc1ccc(-c2nc3ccc4[nH]ncc4c3c3c2CCCC3)c2cccnc12" 5.46% (active)

So what's the measured growth for this one? "COc1c(B(O)O)cc(F)cc1-c1nc2ccc3[nH]ncc3c2c2c1CCCC2" 16.1% (inactive)

So what's the measured growth for this one? CNc1nc2c(s1)C(c1cc(F)ccc1F)CC(=O)N2 (stereo unspecified) 69.1% (inactive)

So what's the measured growth for this one? "CCCCCCN(CCCCCC)c1ccc(/C=C2/SC(=O)NC2=O)c(C)c1" 110% (inactive)

So what's the measured growth for this one? "Cc1ccc(C(=O)N/N=C/c2cccc([N+](=O)[O-])c2)cn1" 98.7% (inactive)
